Structures can show the parent of a compound that is named as a salt.
Entries and their measured melting point follow.
Give the number; °C is assumed, so skip it.

Here are 3 molecules together with their reported answers.
O=c1[nH]c2ccc(-c3cc(C(F)(F)F)c4c(-c5ccccc5)n[nH]c4n3)cc2[nH]1; 380
COc1ncc(-c2cc(C(F)(F)F)c3c(-c4ccccc4)nn(C)c3n2)cc1C#N; 250
O=C(c1ccc(-c2cc(C(F)F)c3c(-c4ccccc4)n[nH]c3n2)cc1)N1CCCC1 (as salt: hydrochloride); 248

stdin: Item under review: N#Cc1cc(-c2cc(C(F)F)c3c(-c4ccccc4)n[nH]c3n2)ccc1N (as salt: hydrochloride) . Reported melting point?
stdout: 282

stdin: Nc1ccc(-c2cc(C(F)(F)F)c3c(-c4ccccc4)n[nH]c3n2)cc1 ?
stdout: 237

stdin: Try the molecule CN(C)c1cccc(-c2cc(C(F)(F)F)c3c(-c4ccccc4)nn(C)c3n2)c1
stdout: 95

stdin: Next molecule up: COc1cccc(-c2n[nH]c3nc(-c4ccc(N)c(C#N)c4)cc(C(F)F)c23)c1
stdout: 233

stdin: Same question for N#Cc1cc(-c2cc(C(F)F)c3c(-c4cccnc4)n[nH]c3n2)ccc1N please.
stdout: 296

Data origin: patent US9572799B2
